Reported Inactivation time values follow for various molecules
# test_system: S-adenosylmethionine decarboxylase proenzyme (Rattus norvegicus)
# Sequence (whole entry): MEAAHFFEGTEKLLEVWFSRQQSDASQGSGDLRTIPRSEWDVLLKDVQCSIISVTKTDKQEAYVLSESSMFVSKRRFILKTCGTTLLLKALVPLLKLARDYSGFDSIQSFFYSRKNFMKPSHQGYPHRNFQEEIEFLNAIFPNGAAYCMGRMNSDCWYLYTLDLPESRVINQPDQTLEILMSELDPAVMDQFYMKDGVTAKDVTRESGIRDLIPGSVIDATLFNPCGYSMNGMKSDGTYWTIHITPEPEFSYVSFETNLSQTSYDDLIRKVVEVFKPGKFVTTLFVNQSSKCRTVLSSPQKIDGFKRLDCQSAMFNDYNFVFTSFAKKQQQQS
# test_details: Time required for the half inactivation of S-Adenosyl-L-methionine decarboxylase was determined with 0.2 mM of compound
Report only the number, with the unit min understood.

Consider the following illustrative entries.
Data request: Record request: Inactivation time value, item NCCCNC[C@H]1OC(n2cnc3c(N)ncnc32)[C@H](O)[C@@H]1O (some centres undefined)
Data returned: 250

Data request: Record request: Inactivation time value, item C[S+](CCCN)C[C@H]1OC(n2cnc3c(N)ncnc32)[C@H](O)[C@@H]1O (some centres undefined)
Data returned: 100

Data request: Record request: Inactivation time value, item CN(CCCN)C[C@H]1OC(n2cnc3c(N)ncnc32)[C@H](O)[C@@H]1O (some centres undefined)
Data returned: 93

***
Data request: Record request: Inactivation time value, item C[S+](CC[C@H](N)C(=O)[O-])C[C@H]1O[C@@H](n2cnc3c(N)ncnc32)[C@H](O)[C@@H]1O (some centres undefined) [ADEMETIONINE]
Data returned: 100
